System: J82 bladder carcinoma cells
Assay: Antiproliferative assay (MTT reduction), J82 bladder carcinoma cells
Type: cell-based, human
Details: Homo sapiens, 72 h; J82 bladder carcinoma; 3 days treatment, MTT reduction; mean ± SD; >100 µM considered inactive
quantity.name: IC50

Enquiry: Value lookup for IC50; key = C=C1CCC2[C@](C)(CCC[C@]2(C)C(=O)OC)[C@H]1CC[C@@H](C)CCOC(=O)c1ccccc1C(=O)OCC[C@H](C)CC[C@H]1C(=C)CCC2[C@]1(C)CCC[C@]2(C)C(=O)OC (stereo partly shown)
Return: > 100 µM

Enquiry: I would be grateful if you could share the reported IC50 for C=C1CCC2[C@](C)(CCC[C@]2(C)C(=O)OC)[C@H]1CC[C@@H](C)CCn1cc(CCO)nn1 (stereo partly shown) .
Return: 56.2 µM

Enquiry: Consider the molecule shown here: C=C1CCC2[C@](C)(CCC[C@]2(C)C(=O)OC)[C@H]1CC[C@@H](C)CCOCCCCCCCCCOCC[C@H](C)CC[C@H]1C(=C)CCC2[C@]1(C)CCC[C@]2(C)C(=O)OC (stereo partly shown) What is its recorded IC50?
Return: > 100 µM

Enquiry: I'd like to know its IC50. The molecule in question is C=C1CCC2[C@](C)(CCC[C@]2(C)C(=O)O)[C@H]1CC[C@@H](C)CC(=O)OCC[C@H](C)CC[C@H]1C(=C)CCC2[C@]1(C)CCC[C@]2(C)C(=O)OC (stereo partly shown)
Return: > 100 µM

====

Test system: J82 bladder carcinoma cells
Assay: Antiproliferative assay (MTT reduction), J82 bladder carcinoma cells
Assay type: cell-based, human
Settings: Homo sapiens, 72 h; J82 bladder carcinoma; 3 days treatment, MTT reduction; mean ± SD; >100 µM considered inactive
quantity.name: IC50

Here is how some molecules turned out for IC50.
1) C=C1CCC2[C@](C)(CCC[C@]2(C)C(=O)OC)[C@H]1CC[C@@H](C)CCOC(=O)CCC(=O)OCC[C@H](C)CC[C@H]1C(=C)CCC2[C@]1(C)CCC[C@]2(C)C(=O)OC (stereo partly drawn) [Compound 13] = 72.1 µM
2) C=C1CCC2[C@](C)(CCC[C@]2(C)C(=O)OC)[C@H]1CC[C@@H](C)CCn1cc(CCOC(=O)C[C@H](C)CC[C@H]2C(=C)CCC3[C@]2(C)CCC[C@]3(C)C(=O)OC)nn1 (stereo partly drawn) [Compound 18] = > 100 µM

Could you now look at the following molecule, please?
Enquiry: # input molecule: C=C1CCC2[C@](C)(CCC[C@]2(C)C(=O)OC)[C@H]1CC[C@@H](C)CCOCC[C@H](C)CC[C@H]1C(=C)CCC2[C@]1(C)CCC[C@]2(C)C(=O)OC (stereo partly drawn) [Compound 7] ; wanted: its IC50
Return: > 100 µM

====

System: HL-60 cells
Assay: Antiproliferative assay (MTT reduction), HL-60 promyelocytic leukemia cells
Type: cell-based, human
Conditions: Homo sapiens, 72 h; HL-60 promyelocytic leukemia; 3 days treatment, MTT reduction; mean ± SD; >100 µM considered inactive
pIC50: −log10 of the molar value.
quantity.name: pIC50

# example entries with known answers
1) C=C1CCC2[C@](C)(CCC[C@]2(C)C(=O)OC)[C@H]1CC[C@@H](C)CCOC(=O)CCC(=O)OCC[C@H](C)CC[C@H]1C(=C)CCC2[C@]1(C)CCC[C@]2(C)C(=O)OC (stereo partly drawn) [Compound 13] = 4.22
2) C=C1CCC2[C@](C)(CCC[C@]2(C)C(=O)O)[C@H]1CC[C@@H](C)CCOC(=O)CCc1cn(CC[C@H](C)CC[C@H]2C(=C)CCC3[C@]2(C)CCC[C@]3(C)C(=O)OC)nn1 (stereo partly drawn) [Compound 19] = 4.37

a. C=C1CCC2[C@](C)(CCC[C@]2(C)C(=O)O)[C@H]1CC[C@@H](C)CC(=O)OCc1cn(CC[C@H](C)CC[C@H]2C(=C)CCC3[C@]2(C)CCC[C@]3(C)C(=O)OC)nn1 (stereo partly drawn) [Compound 15]
b. C=C1CCC2[C@](C)(CCC[C@]2(C)C(=O)OC)[C@H]1CC[C@@H](C)CCN=[N+]=[N-] (stereo partly drawn) [Compound 3, 15-Azidoimbricatolic acid methyl ester]
Enquiry: Endpoint returns the identifier whose pIC50 is numerically larger, either a or b . Answer by quoting the chosen item's label.
Return: b
(b: 4.65, a: 4.36)
